Hi there, I'd appreciate the recorded self-cleavage kobs at 10000 uM GlcN6P for every entry that follows.
B1: glmS ribozyme (parent)
chain: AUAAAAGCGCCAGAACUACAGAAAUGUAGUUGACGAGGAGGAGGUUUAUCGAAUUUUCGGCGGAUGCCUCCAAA

variants of: B1; test: self-cleavage kobs at 10000 uM GlcN6P; higher = faster cleavage; RNA array; conditions: with glucosamine-6-phosphate
Fewer inactive variants are shown than the library holds.
One number for each entry, in s⁻¹.

Answered examples (8):
>>> experimentalresult("AUAAAAGCGUCAGAACUACAGAAAUGUAGUUGACGAGGAGGAGGAUUAUCGAAUUUUCGGCGGAUGCCUCCAAA")
"2.12e-05"
>>> experimentalresult("AUAAAAGCGCCAGACCUACAGAAAUGUAGUUGACGAGGAGAAGGUUUAUCGAAUUUUCGGCGGAUGCCUUCAAA")
0.0111
>>> experimentalresult("AUAAAAGCGCCAAAACUACAGAAAUGUAGUUGACGAGGAGGAGGUUUAUCGAAGUUUCGGCGGAUGCCUCCAAA")
0.000537
>>> experimentalresult("AUAAAAGCGCCAGAACUACAGAAAUGUAGACGACGAGGAGGAGGUUUAUCGAGUUUUCGGCGGAUGCCUCCAAA")
0.00407
>>> experimentalresult("AUAAAAGCGCCAGAACUACAGAAAUGUAGUUGACGAGGAGGAGGUUUAUCGAAUUGUCGGCGGAUGCCUACAAA")
"3.66e-05"
>>> experimentalresult("AUAAAAGCGCCAGAUCUACAUAAAUGUAGUUGACGAGGAGGAGGUUUAUCGAAUUUUCGGCGGAUGCCUCCAAA")
0.00395
>>> experimentalresult("AUAAAAGCGCCAGAACUACAGAAAUGUAGUUGACGAGGAUGAGGUUUAUCGAAUUAUCGGCGGAUGCCUCCAAA")
0.00344
>>> experimentalresult("AUAAAAGCGCCAGAACUACAGAAAUGUAGUUGACGAGGAGGAGGUUUAUCGAAUCUUCGGCGGACGCCUCCAAA")
0.000217

For every record below, what is its self-cleavage kobs at 10000 uM GlcN6P?
1. AUAAAAGCGCCAGAACUACAGAAAUGUAGUUGACGAGGAGGAGGUUAAUCGAAUUUUCGGCGGAUGCCACCAAA
2. AUAAAAGCGCCAGAACUACAGAAAUGUAGUUGACGAGGGGGAGGCUUAUCGAAUUUUCGGCGGAUGACUCCAAA
3. AUAAAAGCGCCAGAACUACAGAAAUGUAGGGGACGAGGAGGAGGUCUAUCGAAUUUUCGGCGGAGGCCUCCAAA
4. AUAAAAGCGCCAGAACUACAGAAAUGUAGUUGACGAGGAGGAGGUUUAUCGAAUUUUCGGCGGAUACGUCCAAA
5. AUAAAAGCGCCAGAACUACAGAAAUGUAGUUGACGAGGAGGAGGUUUAUCGAAUUUCCGGCGGAUGCUUCCAAA
6. AUAAAAGCGCCAGAACUACAGAAAUGUAUUUCACGAGGAGGAGGUUUAUCGAAUUUUCGGCGGAUGCCUCCAAA
7. AUAAAAGCGCCAGAACUACAGAAAUGUAGUUGACGAGGAGAAGGUGUAUCGAAUUUUCGGCGGAUGCCUUCAAA

1. 8.87e-05
2. 0.00692
3. 5.94e-05
4. 7.85e-05
5. 5.36e-05
6. 9.71e-05
7. 0.00749

// for each variant in input: emit self-cleavage kobs at 10000 uM GlcN6P
1. AUAAAAGCGCCAGAACUACAGAAAUGUAGAUGACGAGGAGGAGGUUUAUCGUAUUUUCGGCGGAUGCCUCCAAA
2. AUAAAAGCGCCAGAACUACAGAAAUGUAGUUGACGAGGAGGAGGUUUAUCGAUUUUUCGGCGGAUAUCUCCAAA
3. AUAAAAGCGCCAGUACUAUAGAAAUGUAGUUGACGAGGAGGAGGUUUAUCGAAUUUUGGGCGGAUGCCUCCAAA
4. AUAAAAGCGCCAGAACUACAGAAAUGUAGAUGACGAGGAGGAGGUUUAUCGAAUGUUCGGCGGAUGCCUCCAAA
5. AUAAAAGCGCCCGAACUACAGAAAUGUAGUUGACGAGGAGGAGGUGUAUCGAAUUUUCGGCGGAUGCCUCCAAA
6. AUAAAAGCGCCAGAACUACAGAAAUGUAGUUGACGAGGCGGGGGUUUAUCGAAUUUUCGGCGGAUGCCUCCAAA
7. AUAAAAGCGCCAGAACUACAGAAAUGUAGUAGACGAGGAGGAGGUUUAUCGAAUUUUCAGCGGAUGCCUCCAAA
8. AUAAAUGCGCCAGAACUACAGAAAUGUAGUUGACGAGGUGGAGGUUUAUCGAAUUUUCGGCGGAUGCCUCCAAA

1: 9.26e-05; 2: 0.00355; 3: 9.16e-05; 4: 0.00586; 5: 0.00278; 6: 0.0047; 7: 0.000104; 8: 8.67e-05

Field: self-cleavage kobs at 10000 uM GlcN6P. Fill in for each record below.
1. AUAAAAGCGCCAGAACUACAGAAAUGUAGGUGACGAGGACGAGGUUUAUCGAAUUUUCGGCGGAUGCCUCCAAA
2. AUAAAAGCGCCAGAACUACAGAAAUGUAGUGGACGAGGAGGAGCUUUAUCGAAUUUUCGGCGGAUGCCUCCAAA

1. 0.000544
2. 4.96e-05
